# system_name: MycC (Homo sapiens, UniProt P01106)
# Construct: endogenous in cells; host or cells: L363
# Sequence (P01106 whole entry): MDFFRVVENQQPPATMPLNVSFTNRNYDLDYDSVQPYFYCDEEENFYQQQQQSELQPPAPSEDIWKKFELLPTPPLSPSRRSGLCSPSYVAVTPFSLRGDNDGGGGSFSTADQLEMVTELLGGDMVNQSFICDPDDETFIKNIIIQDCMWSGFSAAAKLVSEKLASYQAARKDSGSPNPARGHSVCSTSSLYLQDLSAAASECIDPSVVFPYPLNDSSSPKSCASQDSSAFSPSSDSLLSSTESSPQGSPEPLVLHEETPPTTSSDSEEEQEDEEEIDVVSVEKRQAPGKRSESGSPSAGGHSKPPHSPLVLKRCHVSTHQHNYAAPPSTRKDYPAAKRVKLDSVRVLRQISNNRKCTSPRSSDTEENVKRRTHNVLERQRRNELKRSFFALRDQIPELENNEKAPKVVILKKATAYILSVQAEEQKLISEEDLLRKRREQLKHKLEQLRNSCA
# test_summary: Degradation of MycC protein in L363 cells, JESS/Western blot of lysates
# Type: cell-based
# condition_notes: L-363, 24 h, L-363 cells, 24 h, 6 μM; read-out: % Degradation of MycC (L-363) 24 h, 6 μM
property: Dmax at 6 µM

# example entries with known answers
1. NC[C@@H]1CCN(c2nccc(Nc3cc(C4CCCC4)[nH]n3)n2)C1	80 to 100%
2. O=S1(=O)CCN(CC23CC(C2)N(c2nccc(Nc4cc(C5CCCC5)[nH]n4)n2)C3)CC1	80 to 100%
3. NC[C@H]1CN(c2nccc(Nc3cc(C4CC4)[nH]n3)n2)C[C@H]1F	80 to 100%
4. CN1CC2(C1)CN(c1nccc(Nc3cc(C4CCCC4)[nH]n3)n1)C2	20 to 49%
5. CN(C)[C@@H]1CCN(c2nccc(Nc3cc(C4CC4)[nH]n3)n2)C1	80 to 100%
6. CS(=O)(=O)CCNCC12CC(C1)N(c1nccc(Nc3cc(C4CCCC4)[nH]n3)n1)C2	80 to 100%
7. FC(F)(F)CNCC12CC(C1)N(c1nccc(Nc3cc(C4CCCC4)[nH]n3)n1)C2	80 to 100%

Please turn your attention to the following entry.
*Q* Please list Dmax at 6 µM recorded for the compound `c1cc(Nc2cc(C3CCCC3)[nH]n2)nc(N2CC3(CCCNC3)C2)n1`
*A* < 20%

====

# system_name: MycN (Homo sapiens)
# Construct: endogenous in cells; host or cells: SK-N-BE(2)
# Sequence (P04198 1-464): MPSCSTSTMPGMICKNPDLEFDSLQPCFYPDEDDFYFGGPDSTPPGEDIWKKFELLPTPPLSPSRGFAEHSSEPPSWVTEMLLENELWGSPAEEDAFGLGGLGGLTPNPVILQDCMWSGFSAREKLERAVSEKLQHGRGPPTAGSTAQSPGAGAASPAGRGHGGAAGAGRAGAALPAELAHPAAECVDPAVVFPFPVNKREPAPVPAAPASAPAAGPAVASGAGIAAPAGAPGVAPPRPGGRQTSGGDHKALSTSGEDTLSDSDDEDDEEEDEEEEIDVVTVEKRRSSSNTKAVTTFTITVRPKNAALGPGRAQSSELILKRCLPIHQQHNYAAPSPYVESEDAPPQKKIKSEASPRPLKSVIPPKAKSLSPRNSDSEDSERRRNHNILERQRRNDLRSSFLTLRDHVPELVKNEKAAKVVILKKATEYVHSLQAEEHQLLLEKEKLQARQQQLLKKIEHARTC
# test_summary: Degradation of MycN protein in SK-N-BE(2) cells, JESS/Western blot of lysates
# Format: cell-based
# condition_notes: SKNBE2, 24 h, SKNBE2 cells, 24 h, 0.5 μM; read-out: % Degradation of MycN (SKNBE2) 24 h, 0.5 μM
Below, each entry is listed with its recorded Dmax at 0.5 µM.

# example entries with known answers
1. CN(C)C[C@@H]1CCN(c2nccc(Nc3cc(C4CC4)[nH]n3)n2)C1 (stereo in doubt) [Compound 33]	20 to 49%
2. NC[C@@H]1CCCN(c2nccc(Nc3cc(C4CC4)[nH]n3)n2)C1 [Compound 24]	20 to 49%
3. CN(C)CCCNc1nccc(Nc2cc(C3CC3)[nH]n2)n1 [Compound 20]	< 20%
4. CNC[C@@H]1CCN(c2nccc(Nc3cc(C4CCCC4)[nH]n3)n2)C1 [Compound 36]	20 to 49%

*Q* Please list Dmax at 0.5 µM recorded for the compound CNC[C@@H]1CCN(c2nccc(Nc3cc(C4CC4)[nH]n3)n2)C1 [Compound 21]
*A* 20 to 49%

*Q* Please list Dmax at 0.5 µM recorded for the compound CNCCCN(C)c1nccc(Nc2cc(C3CC3)[nH]n2)n1 [Compound 101]
*A* < 20%

*Q* Please list Dmax at 0.5 µM recorded for the compound CNC[C@H]1CCN(c2nccc(Nc3cc(C4CCCC4)[nH]n3)n2)C1 [Compound 35]
*A* 20 to 49%

*Q* Please list Dmax at 0.5 µM recorded for the compound CNC[C@H]1CCN(c2nccc(Nc3cc(C4CC4)[nH]n3)n2)C1 [Compound 7]
*A* < 20%

*Q* Please list Dmax at 0.5 µM recorded for the compound O=C1c2ccccc2C(=O)N1CC12CC(CN(c3nccc(Nc4cc(C5CC5)[nH]n4)n3)C1)C2 [Compound 126]
*A* 80 to 100%
